system: Bacillus subtilis; assay: Inhibition of N-terminal LgBiT-fused Bacillus subtilis NusB expressed in Escherichia coli BL21(DE3)pLysS interaction with C- terminal SmBiT-fused Bacillus subtilis NusE expressed in Escherichia coli BL21(DE3)pLysS at 100 uM preincubated for 10 mins followed by NusE addition and measured after 10 mins by nano-glo luciferase assay relative to control
Classification field: Yes = inhibition at or over 60%; No = inhibition under 60%.

Dear colleague, could you confirm whether "O=[N+]([O-])c1ccc(O)c(CNc2cccc3ccccc23)c1" has inhibition at or above 60%? No

Dear colleague, could you confirm whether "C#Cc1cccc(/N=C/c2cc(CC#N)ccc2O)c1" has inhibition at or above 60%? No

Dear colleague, could you confirm whether "O=[N+]([O-])c1ccc(O)c(/C=N/c2ccc(Cl)cc2)c1" has inhibition at or above 60%? No

Dear colleague, could you confirm whether "C#Cc1cccc(/N=C/c2cccc([N+](=O)[O-])c2)c1" has inhibition at or above 60%? No

Dear colleague, could you confirm whether "O=C(O)c1cccc(/N=C/c2cc([N+](=O)[O-])ccc2O)c1" has inhibition at or above 60%? Yes

Dear colleague, could you confirm whether "C#Cc1ccc(/N=C/c2cc([N+](=O)[O-])ccc2O)cc1" has inhibition at or above 60%? Yes

Dear colleague, could you confirm whether "O=[N+]([O-])c1ccc(O)c(CNc2cccc(O)c2)c1" has inhibition at or above 60%? Yes

Dear colleague, could you confirm whether "C#Cc1ccccc1/N=C/c1cc([N+](=O)[O-])ccc1O" has inhibition at or above 60%? Yes

Dear colleague, could you confirm whether "O=[N+]([O-])c1ccc(O)c(CNc2ccccc2)c1" has inhibition at or above 60%? No

Dear colleague, could you confirm whether "C#Cc1cccc(NCc2ccc([N+](=O)[O-])cc2O)c1" has inhibition at or above 60%? No

Dear colleague, could you confirm whether "C#Cc1cccc(/N=C/c2cc(Cl)cc(Cl)c2O)c1" has inhibition at or above 60%? No

Dear colleague, could you confirm whether "O=[N+]([O-])c1ccc(O)c(CNc2ccccc2Cl)c1" has inhibition at or above 60%? No

Dear colleague, could you confirm whether "C#Cc1cccc(/N=C/c2cc(O)ccc2[N+](=O)[O-])c1" has inhibition at or above 60%? No

Dear colleague, could you confirm whether "O=[N+]([O-])c1ccc(O)c(/C=N/c2cccc3ccccc23)c1" has inhibition at or above 60%? No

Dear colleague, could you confirm whether "O=[N+]([O-])c1ccc(O)c(/C=N/C2CCCCC2)c1" has inhibition at or above 60%? Yes

Dear colleague, could you confirm whether "C#Cc1cccc(NCc2cccc([N+](=O)[O-])c2)c1" has inhibition at or above 60%? No

Dear colleague, could you confirm whether "O=[N+]([O-])c1ccc(O)c(CNc2ccccc2O)c1" has inhibition at or above 60%? Yes

Dear colleague, could you confirm whether "O=[N+]([O-])c1ccc(O)c(/C=N/c2ccccc2C(F)(F)F)c1" has inhibition at or above 60%? No

Dear colleague, could you confirm whether "O=[N+]([O-])c1ccc(O)c(/C=N/c2cccc(Cl)c2)c1" has inhibition at or above 60%? Yes

Dear colleague, could you confirm whether "C#Cc1cccc(NCc2cc(C(=O)OC)ccc2O)c1" has inhibition at or above 60%? No

Dear colleague, could you confirm whether "C#Cc1cccc(/N=C/c2cc(F)ccc2O)c1" has inhibition at or above 60%? No

Dear colleague, could you confirm whether "O=[N+]([O-])c1ccc(O)c(/C=N/c2cccc(O)c2)c1" has inhibition at or above 60%? Yes
